biological target: Human immunodeficiency virus type 1 integrase (Human immunodeficiency virus 1, UniProt Q7ZJM1); assay: Inhibition of HIV1 integrase
Sequence (Q7ZJM1 whole entry): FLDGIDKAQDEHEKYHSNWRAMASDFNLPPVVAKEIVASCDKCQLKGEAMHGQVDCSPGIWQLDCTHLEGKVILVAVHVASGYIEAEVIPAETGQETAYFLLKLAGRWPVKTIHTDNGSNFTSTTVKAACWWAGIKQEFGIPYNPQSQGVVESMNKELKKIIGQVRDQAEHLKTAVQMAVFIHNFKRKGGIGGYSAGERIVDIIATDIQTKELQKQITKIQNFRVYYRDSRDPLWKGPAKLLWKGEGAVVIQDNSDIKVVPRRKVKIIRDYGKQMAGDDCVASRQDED
Consider the following molecules and their measured IC50 readings.
testReadout: IC50 (µM)

| molecule | testReadout | relationQualifier | numericValue |
| --- | --- | --- | --- |
| O=C(O)c1cc2cc(O)c(O)cc2[nH]1 | IC50 | < | 10 |
| O=C1C(O)=C(O)C(O)=C2CC(O)=CC=CC12 (configuration not stated) | IC50 | = | 2.1 |

* * *

biological target: Human immunodeficiency virus type 1 integrase (Human immunodeficiency virus 1); assay: Inhibition of HIV1 integrase-mediated 3'-end processing activity
pIC50: −log10 of the molar value.
testReadout: pIC50

| smilesData | testReadout | numericValue |
| --- | --- | --- |
| O=C(O)C(=O)CC(=O)c1cc(OCc2ccccc2)cc(OCc2ccccc2)c1 | pIC50 | 6.70 |
